Recorded measurements of IC50, one per entry
Target: recombinant eIF4E (Homo sapiens (Human), UniProt P06730)
Sequence (P06730 whole entry): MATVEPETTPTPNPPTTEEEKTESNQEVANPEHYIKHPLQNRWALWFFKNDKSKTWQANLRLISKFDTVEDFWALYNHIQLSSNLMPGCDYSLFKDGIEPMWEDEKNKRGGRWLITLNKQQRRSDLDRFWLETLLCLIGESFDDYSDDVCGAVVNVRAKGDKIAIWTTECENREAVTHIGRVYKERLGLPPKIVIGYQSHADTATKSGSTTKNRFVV
Test: Fluorescence polarization competition assay for eIF4E binding potency
Details: inhibition of eIF4E/EDA-m7GDP-ATTO-550 binding by 50%; Table 4B calculated values; read-out: IC50
Quick note: unit goes after the number.

Request body: readout IC50, system recombinant eIF4E (Homo sapiens (Human), UniProt P06730), query "N#Cc1cc2c(=O)n(Cc3cc4cc(Cl)cc(-c5cccc(C(=O)O)c5)c4o3)cnc2cn1" . Return the value.
12600 nM

---
Recorded IC50 for "Cc1nc2cc(C(F)(F)F)c(N3CCN(C)CC3)c(C#N)c2c(=O)n1CCOc1ccc(Cl)cc1-c1ccnc2ccsc12" with recombinant eIF4E (Homo sapiens (Human), UniProt P06730), please?
19.1 nM

# returns recorded IC50 (system: recombinant eIF4E (Homo sapiens (Human), UniProt P06730)) for "Cc1ccc(C#N)c2c(=O)n(CCOc3ccc(Cl)cc3-c3ccnc4c(C(=O)O)csc34)c(C)nc12"
57.5 nM

IC50 of "Cc1cc(-c2cc(Cl)ccc2OCCn2c(C)nc3cc(Cl)c(N(C)c4cncc(F)c4)c(C#N)c3c2=O)c2scc(C(=O)O)c2n1" on recombinant eIF4E (Homo sapiens (Human), UniProt P06730)?
21.1 nM
